Experiment: Pharmacokinetics, rat
Assay type: in vivo, Sprague-Dawley rats
Settings: Sprague-Dawley, in vivo, IV, 2 mg/kg
measured_parameter: AUC(0-t) (ng·h/mL)
The answer is to be given in ng·h/mL; state only the numeric part.

Entry C[C@H](Nc1ncnc2[nH]cnc12)c1cc2cccc(Cl)c2c(=O)n1-c1ccccc1 ; AUC(0-t) = 1150

---

Target: PI3K δ (Homo sapiens, UniProt O00329)
Sequence (O00329 whole entry): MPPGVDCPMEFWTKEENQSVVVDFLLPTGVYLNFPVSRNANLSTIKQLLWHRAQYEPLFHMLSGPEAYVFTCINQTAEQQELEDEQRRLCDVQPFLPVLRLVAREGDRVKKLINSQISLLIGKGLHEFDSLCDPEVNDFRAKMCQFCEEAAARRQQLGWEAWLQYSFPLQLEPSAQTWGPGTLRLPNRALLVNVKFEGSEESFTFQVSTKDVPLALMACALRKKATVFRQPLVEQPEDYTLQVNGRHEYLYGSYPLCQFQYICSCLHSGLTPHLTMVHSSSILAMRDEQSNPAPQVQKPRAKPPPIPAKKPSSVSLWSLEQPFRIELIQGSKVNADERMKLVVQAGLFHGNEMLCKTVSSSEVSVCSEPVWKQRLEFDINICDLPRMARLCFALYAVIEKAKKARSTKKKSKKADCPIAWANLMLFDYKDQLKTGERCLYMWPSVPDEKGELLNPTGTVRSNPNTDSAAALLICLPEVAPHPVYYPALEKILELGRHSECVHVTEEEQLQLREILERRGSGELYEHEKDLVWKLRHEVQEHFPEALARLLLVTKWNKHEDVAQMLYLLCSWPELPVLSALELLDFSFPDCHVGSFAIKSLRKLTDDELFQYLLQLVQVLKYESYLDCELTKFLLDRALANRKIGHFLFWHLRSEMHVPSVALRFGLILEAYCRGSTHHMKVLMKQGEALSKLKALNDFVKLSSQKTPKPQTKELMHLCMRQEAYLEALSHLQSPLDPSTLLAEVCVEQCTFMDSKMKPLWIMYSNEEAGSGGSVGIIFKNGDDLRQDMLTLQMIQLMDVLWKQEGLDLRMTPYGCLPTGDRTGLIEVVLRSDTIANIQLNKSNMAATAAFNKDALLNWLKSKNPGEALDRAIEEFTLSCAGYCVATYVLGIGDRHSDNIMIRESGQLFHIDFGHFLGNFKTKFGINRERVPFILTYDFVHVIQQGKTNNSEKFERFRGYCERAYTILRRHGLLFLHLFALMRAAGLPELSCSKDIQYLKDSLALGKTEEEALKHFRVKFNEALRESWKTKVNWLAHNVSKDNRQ
Sequence (P27986 whole entry partner): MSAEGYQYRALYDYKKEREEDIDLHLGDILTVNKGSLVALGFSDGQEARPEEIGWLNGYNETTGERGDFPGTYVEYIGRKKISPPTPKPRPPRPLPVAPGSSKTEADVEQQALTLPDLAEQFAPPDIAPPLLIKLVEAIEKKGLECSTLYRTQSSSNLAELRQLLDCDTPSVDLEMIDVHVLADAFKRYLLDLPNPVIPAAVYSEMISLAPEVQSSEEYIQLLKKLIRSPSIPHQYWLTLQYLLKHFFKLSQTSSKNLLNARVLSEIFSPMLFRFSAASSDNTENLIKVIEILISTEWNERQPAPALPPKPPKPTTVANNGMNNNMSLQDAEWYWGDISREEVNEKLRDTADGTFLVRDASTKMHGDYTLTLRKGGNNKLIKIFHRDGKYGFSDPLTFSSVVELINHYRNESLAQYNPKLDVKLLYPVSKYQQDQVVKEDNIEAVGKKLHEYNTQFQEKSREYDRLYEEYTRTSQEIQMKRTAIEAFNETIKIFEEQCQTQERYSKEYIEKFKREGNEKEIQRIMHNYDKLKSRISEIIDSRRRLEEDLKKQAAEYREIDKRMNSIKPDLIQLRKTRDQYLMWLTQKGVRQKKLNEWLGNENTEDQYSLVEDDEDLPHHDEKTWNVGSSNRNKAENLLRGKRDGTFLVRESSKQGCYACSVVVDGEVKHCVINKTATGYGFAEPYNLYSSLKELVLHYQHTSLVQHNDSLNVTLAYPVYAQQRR
// reported IC50 per item

Entry Cc1cccc2cc(Cn3nc(-c4cccc(O)c4)c4c(N)ncnc43)n(C(C)C)c(=O)c12 ; IC50 = < 0.1 µM

Entry Cc1ccccc1-n1c(Cn2nc(-c3ccc4cc[nH]c4c3)c3c(N)ncnc32)cc2cccc(C)c2c1=O ; IC50 = < 0.1 µM

Entry CCn1c(Cn2nc(-c3ccc4nc(NC(C)=O)sc4c3)c3c(N)ncnc32)cc2cccc(C)c2c1=O ; IC50 = < 0.1 µM

Entry Cc1cccc2cc(Cn3nc(I)c4c(N)ncnc43)n(-c3ccccc3O)c(=O)c12 ; IC50 = < 0.1 µM

Entry Cc1cccc2cc(Cn3nc(C(N)=O)c4c(N)ncnc43)n(-c3ccccc3)c(=O)c12 ; IC50 = < 1 µM

---

Test: Pharmacokinetics, mouse
Assay type: in vivo, BALB/c mice
Settings: BALB/c, in vivo, PO, 10 mg/kg
measured_parameter: Tmax
Please answer using the number first and the unit second.

Entry C[C@H](Nc1ncnc2[nH]cnc12)c1cc2cccc(Cl)c2c(=O)n1-c1ccccc1 ; Tmax = 4.98 min

---

For UniProt P42338, measured IC50 is reported for the entries below.
Sequence (P42338 whole entry): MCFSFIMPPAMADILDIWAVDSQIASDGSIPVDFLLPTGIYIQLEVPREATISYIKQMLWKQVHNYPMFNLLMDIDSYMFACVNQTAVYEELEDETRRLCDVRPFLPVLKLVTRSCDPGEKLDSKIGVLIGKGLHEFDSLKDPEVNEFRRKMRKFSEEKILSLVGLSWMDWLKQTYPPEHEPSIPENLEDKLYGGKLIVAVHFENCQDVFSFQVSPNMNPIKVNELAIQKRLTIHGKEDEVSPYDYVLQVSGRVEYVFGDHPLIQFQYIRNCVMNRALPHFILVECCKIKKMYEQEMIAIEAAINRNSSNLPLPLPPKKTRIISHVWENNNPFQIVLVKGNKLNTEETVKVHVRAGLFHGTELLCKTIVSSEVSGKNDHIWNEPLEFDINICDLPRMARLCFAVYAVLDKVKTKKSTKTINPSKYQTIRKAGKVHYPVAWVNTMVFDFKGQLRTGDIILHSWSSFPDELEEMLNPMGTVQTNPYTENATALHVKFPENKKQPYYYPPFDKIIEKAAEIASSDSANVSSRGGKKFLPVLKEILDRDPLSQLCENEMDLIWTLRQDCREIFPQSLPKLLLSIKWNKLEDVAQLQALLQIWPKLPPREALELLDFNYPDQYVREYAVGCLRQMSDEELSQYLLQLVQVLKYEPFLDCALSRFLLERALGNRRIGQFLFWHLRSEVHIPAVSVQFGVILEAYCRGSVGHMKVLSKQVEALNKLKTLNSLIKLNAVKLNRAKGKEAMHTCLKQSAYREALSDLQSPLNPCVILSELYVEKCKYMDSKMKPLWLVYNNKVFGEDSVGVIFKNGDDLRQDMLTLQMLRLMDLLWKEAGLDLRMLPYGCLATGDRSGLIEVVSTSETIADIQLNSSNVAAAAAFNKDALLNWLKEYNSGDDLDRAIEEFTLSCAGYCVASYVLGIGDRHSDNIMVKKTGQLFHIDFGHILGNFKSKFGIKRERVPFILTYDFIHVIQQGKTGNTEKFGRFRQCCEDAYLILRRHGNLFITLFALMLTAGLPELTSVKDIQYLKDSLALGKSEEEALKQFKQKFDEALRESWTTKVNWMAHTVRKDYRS

In the examples that follow, each entry is paired with its recorded IC50.
Entry Cc1ccccc1-n1c(Cn2nc(C#C[C@H](C)O)c3c(N)ncnc32)cc2cccc(C)c2c1=O ; IC50 = < 10 µM

Entry Cc1ccccc1-n1c(Cn2nc(-c3cccc(O)c3)c3c(N)ncnc32)cc2cccc(C)c2c1=O ; IC50 = < 10 µM

Entry Cc1cccc2cc([C@H](C)Nc3ncnc4[nH]cc(F)c34)n(-c3ccccc3)c(=O)c12 ; IC50 = < 0.1 µM

Entry Cc1cccc2cc([C@H](C)Nc3cc(N)nc(N)n3)n(-c3ccccc3)c(=O)c12 ; IC50 = > 10 µM

Entry CC(=O)Nc1nc2ccc(-c3nn(Cc4cc5cccc(C)c5c(=O)n4-c4ccccc4)c4ncnc(N)c34)cc2s1 ; IC50 = < 10 µM

Now for the molecule whose IC50 we want.
Entry CCC(Nc1ncnc2[nH]cnc12)c1cc2cccc(C)c2c(=O)n1-c1cc(F)cc(F)c1 (stereo not drawn) ; IC50 = > 10 µM

---

pIC50: −log10 of the molar value.
For UniProtKB P42336, measured pIC50 is reported for the entries below.
Sequence (P42336 whole entry, one chain of several): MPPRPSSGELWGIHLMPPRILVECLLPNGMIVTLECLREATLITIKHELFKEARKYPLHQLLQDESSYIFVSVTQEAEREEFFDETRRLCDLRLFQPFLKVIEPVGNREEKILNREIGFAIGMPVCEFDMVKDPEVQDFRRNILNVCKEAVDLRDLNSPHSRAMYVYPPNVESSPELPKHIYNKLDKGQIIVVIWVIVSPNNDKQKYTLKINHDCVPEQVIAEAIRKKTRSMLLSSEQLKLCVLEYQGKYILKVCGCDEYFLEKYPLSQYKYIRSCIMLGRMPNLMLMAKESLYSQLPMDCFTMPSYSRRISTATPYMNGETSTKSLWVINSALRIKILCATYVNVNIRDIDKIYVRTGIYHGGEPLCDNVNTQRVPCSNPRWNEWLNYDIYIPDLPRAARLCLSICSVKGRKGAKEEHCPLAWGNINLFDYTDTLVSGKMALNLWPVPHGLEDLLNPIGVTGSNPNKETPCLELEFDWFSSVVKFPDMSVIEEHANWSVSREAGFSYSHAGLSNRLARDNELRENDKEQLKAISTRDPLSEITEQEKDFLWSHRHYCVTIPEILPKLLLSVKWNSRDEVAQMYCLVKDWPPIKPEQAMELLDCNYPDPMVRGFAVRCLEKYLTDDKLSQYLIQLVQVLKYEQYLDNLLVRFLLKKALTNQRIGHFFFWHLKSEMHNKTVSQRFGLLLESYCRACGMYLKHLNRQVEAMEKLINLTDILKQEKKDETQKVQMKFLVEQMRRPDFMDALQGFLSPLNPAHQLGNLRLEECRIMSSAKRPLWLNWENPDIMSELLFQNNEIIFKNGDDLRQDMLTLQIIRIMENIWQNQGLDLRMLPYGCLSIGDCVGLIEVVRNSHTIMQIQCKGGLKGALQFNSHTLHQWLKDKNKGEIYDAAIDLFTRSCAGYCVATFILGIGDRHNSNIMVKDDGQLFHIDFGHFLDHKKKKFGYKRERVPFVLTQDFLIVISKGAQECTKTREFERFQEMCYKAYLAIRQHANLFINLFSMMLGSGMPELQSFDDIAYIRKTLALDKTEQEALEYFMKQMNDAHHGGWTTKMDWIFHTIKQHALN

In the examples that follow, each entry is paired with its recorded pIC50.
Bench note, UniProtKB P42336: entry Cc1ccccc1-n1c(Cn2nc(-c3ccc4oc(N)nc4c3)c3c(N)ncnc32)cc2cccc(C)c2c1=O , its pIC50 = > 6.00

Bench note, UniProtKB P42336: entry Cc1cccc2cc(Cn3nc(C(F)F)c4c(N)ncnc43)n(-c3ccccc3)c(=O)c12 , its pIC50 = < 5.00

Bench note, UniProtKB P42336: entry Cc1ccccc1-n1c(Cn2nc(I)c3c(N)ncnc32)cc2ccccc2c1=O , its pIC50 = < 5.00

Bench note, UniProtKB P42336: entry Cc1ccccc1-n1c(Cn2nc(-c3cccc(Cl)c3)c3c(N)ncnc32)cc2cccc(C)c2c1=O , its pIC50 = < 5.00

Bench note, UniProtKB P42336: entry Cc1cccc2cc([C@H](C)Nc3ncnc4[nH]ncc34)n(-c3ccccc3)c(=O)c12 , its pIC50 = < 5.00

New cases:
Bench note, UniProtKB P42336: entry Cc1ccccc1-n1c(Cn2nc(C#C[C@@H](C)O)c3c(N)ncnc32)cc2cccc(F)c2c1=O , its pIC50 = < 5.00

Bench note, UniProtKB P42336: entry Cc1ccccc1-n1c(CN(C)c2ncnc3[nH]cnc23)cc2cccc(C)c2c1=O , its pIC50 = < 5.00

Bench note, UniProtKB P42336: entry CC(=O)Nc1nc2ccc(-c3nn(Cc4cc5cccc(Cl)c5c(=O)n4C(C)C)c4ncnc(N)c34)cc2s1 , its pIC50 = > 7.00

---

Biological target: UniProt P48736
pIC50: −log10 of the molar value.
// reported pIC50 per item

Bench note, UniProt P48736: entry Cc1cccc2cc([C@@H](C)Nc3ncnc4[nH]cnc34)n(C3CC3)c(=O)c12 , its pIC50 = < 5.00

Bench note, UniProt P48736: entry CC(=O)Nc1nc2ccc(-c3nn(Cc4cc5cccc(C)c5c(=O)n4-c4cccc(F)c4)c4ncnc(N)c34)cc2s1 , its pIC50 = > 7.00

Bench note, UniProt P48736: entry Cc1cccc2cc([C@H](C)Nc3ncnc4ccccc34)n(-c3ccccc3)c(=O)c12 , its pIC50 = > 6.00

---

For PI3K γ (Homo sapiens), measured IC50 is reported for the entries below.

In the examples that follow, each entry is paired with its recorded IC50.
Bench note, PI3K γ (Homo sapiens): entry Cc1cccc2cc([C@H](C)Nc3nc(N)nc4[nH]cnc34)n(-c3ccccc3)c(=O)c12 [Compound 323] , its IC50 = < 0.1 µM

Bench note, PI3K γ (Homo sapiens): entry Cc1cccc2cc(C(C)Nc3ncnc4[nH]cnc34)n(C3CCN(C)CC3)c(=O)c12 (stereo not shown) [Compound 227] , its IC50 = > 10 µM

Bench note, PI3K γ (Homo sapiens): entry Cc1cccc2cc(Cn3nc(-c4cn[nH]c4)c4c(N)ncnc43)n(-c3ccccc3)c(=O)c12 [Compound 206] , its IC50 = < 1 µM

Now for the molecule whose IC50 we want.
Bench note, PI3K γ (Homo sapiens): entry Cc1cccc2cc([C@H](C)Nc3ncnc4[nH]c(Cl)nc34)n(C3CC3)c(=O)c12 [Compound 280] , its IC50 = > 10 µM

---

Experiment: Pharmacokinetics, rat
Assay type: in vivo, Sprague-Dawley rats
Details: Sprague-Dawley, in vivo, IV, 2 mg/kg, read-out: Vss
measured_parameter: Vd
Please answer using the number first and the unit second.

Entry C[C@H](Nc1ncnc2[nH]cnc12)c1cc2cccc(Cl)c2c(=O)n1-c1ccccc1 ; Vd = 1.66 L/kg

---

For UniProtKB P42336, measured IC50 is reported for the entries below.

In the examples that follow, each entry is paired with its recorded IC50.
Entry Nc1ncnc2c1c(-c1cc(O)cc(F)c1)nn2Cc1cc2cccc(Cl)c2c(=O)n1C1CC1 ; IC50 = < 0.1 µM

Entry Cc1cccc2cc(Cn3nc(-c4cn[nH]c4)c4c(N)ncnc43)n(-c3ccccc3C(C)C)c(=O)c12 ; IC50 = < 10 µM

Entry Cc1cccnc1-n1c(Cn2nc(C#C[C@@H](C)O)c3c(N)ncnc32)cc2cccc(C)c2c1=O ; IC50 = > 10 µM

Entry Cc1ccccc1-n1c(Cn2nc(CN3CCOCC3)c3c(N)ncnc32)cc2cccc(C)c2c1=O ; IC50 = > 10 µM

Entry Cc1ccccc1-n1c(Cn2nc(C(N)=O)c3c(N)ncnc32)cc2cccc(C)c2c1=O ; IC50 = > 10 µM

Entry CCN(Cc1cc2cccc(C)c2c(=O)n1-c1ccccc1C)c1ncnc2[nH]cnc12 ; IC50 = > 10 µM

Entry Cc1cccc2cc(Cn3nc(C#C[C@@H](C)O)c4c(N)ncnc43)n(C3CC3)c(=O)c12 ; IC50 = > 10 µM

Entry Cc1ccccc1-n1c(Cn2nc(I)c3c(N)ncnc32)cc2cccc(C)c2c1=O ; IC50 = > 10 µM

New cases:
Entry CC(=O)Nc1nc2cc(-c3nn(Cc4cc5cccc(C)c5c(=O)n4-c4ccccc4C)c4ncnc(N)c34)ccc2o1 ; IC50 = < 10 µM

Entry Cc1cccc2cc([C@H](C)Nc3ncnc4[nH]nc(C(N)=O)c34)n(-c3ccccc3)c(=O)c12 ; IC50 = < 10 µM

Entry Cc1cccc2cc(Cn3nc(-c4cn[nH]c4)c4c(N)ncnc43)n(-c3ccccc3)c(=O)c12 ; IC50 = < 10 µM

---

Test: Pharmacokinetics, mouse
Type: in vivo, BALB/c mice
Details: BALB/c, in vivo, IV, 10 mg/kg
measured_parameter: Tmax (min)
The answer is to be given in min; state only the numeric part.

Entry C[C@H](Nc1ncnc2[nH]cnc12)c1cc2cccc(Cl)c2c(=O)n1-c1ccccc1 [Compound 292] ; Tmax = 4.98

---

pIC50: −log10 of the molar value.
For UniProt:P42336, measured pIC50 is reported for the entries below.

Bench note, UniProt:P42336: entry Cc1nc2c(N[C@@H](C)c3cc4cccc(C)c4c(=O)n3-c3ccccc3)ncnc2[nH]1 [Compound 242] , its pIC50 = < 5.00

New cases:
Bench note, UniProt:P42336: entry Cc1ccccc1-n1c(Cn2nc(-c3ccc4nc(N)[nH]c4c3)c3c(N)ncnc32)cc2cccc(C)c2c1=O [Compound 295] , its pIC50 = > 5.00

Bench note, UniProt:P42336: entry Cc1cccc2cc([C@H](C)Nc3ncnc4[nH]cnc34)n(-c3ccc(F)cc3)c(=O)c12 [Compound 260] , its pIC50 = > 6.00

Bench note, UniProt:P42336: entry Cc1cccc2cc(C(C)Nc3ncnc4[nH]cnc34)n(C3CC3)c(=O)c12 (stereo not drawn) [Compound 204] , its pIC50 = > 5.00

Bench note, UniProt:P42336: entry CC(=O)Nc1nc2ccc(-c3nn(Cc4cc5cccc(C)c5c(=O)n4C(C)C)c4ncnc(N)c34)cc2s1 [Compound 154] , its pIC50 = > 7.00

Bench note, UniProt:P42336: entry Cc1cccc2cc(Cn3nc(-c4cccc(O)c4)c4c(N)ncnc43)n(-c3ccccc3OCCN3CCOCC3)c(=O)c12 [Compound 109] , its pIC50 = < 5.00

Bench note, UniProt:P42336: entry Cc1cccc2cc(Cn3nc(-c4cccc(O)c4)c4c(N)ncnc43)n(C(C)C)c(=O)c12 [Compound 62] , its pIC50 = < 5.00
